Data provenance is ChEMBL document CHEMBL4346654.

Molecular target: Cytochrome P450 3A4 (Homo sapiens)
Sequence (P08684 whole entry): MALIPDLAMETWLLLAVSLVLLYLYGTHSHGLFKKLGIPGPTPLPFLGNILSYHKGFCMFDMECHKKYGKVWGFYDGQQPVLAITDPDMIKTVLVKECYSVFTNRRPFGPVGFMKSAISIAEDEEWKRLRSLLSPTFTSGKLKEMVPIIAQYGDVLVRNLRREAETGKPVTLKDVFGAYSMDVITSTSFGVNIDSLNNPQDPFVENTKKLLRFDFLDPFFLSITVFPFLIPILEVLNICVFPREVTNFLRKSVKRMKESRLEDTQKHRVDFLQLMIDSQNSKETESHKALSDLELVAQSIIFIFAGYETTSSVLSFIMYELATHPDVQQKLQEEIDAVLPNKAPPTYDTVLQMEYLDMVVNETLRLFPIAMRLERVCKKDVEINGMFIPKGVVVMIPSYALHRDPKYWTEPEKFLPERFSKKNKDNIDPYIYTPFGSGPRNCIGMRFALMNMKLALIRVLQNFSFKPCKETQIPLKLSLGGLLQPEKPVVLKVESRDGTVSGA
Experiment: Inhibition of CYP3A4 in human liver microsomes assessed as reduction in metabolite formation using midazolam as substrate incubated for 10 mins in presence of NADPH by HPLC based mass spectrometric method
Assay type: ADME
PARAMETER: IC50 (µM)
Numbers only, in µM.

Observe how each entry below is paired with its result.
CC[C@H]1OC(=O)[C@H](C)C(=O)[C@H](C)[C@@H](O[C@@H]2O[C@H](C)C[C@H](N(C)C)[C@H]2O)[C@](C)(OC)C[C@@H](C)C(=O)[C@H](C)[C@H]2N(CCCCn3cnc(-c4cccnc4)c3)C(=O)O[C@]12C : 11.8
CC[C@H]1OC(=O)[C@@](C)(F)C(=O)[C@H](C)[C@@H](O[C@@H]2O[C@H](C)C[C@H](N(C)C)[C@H]2O)[C@](C)(OC)C[C@@H](C)/C(=N\OC/C=C/c2ccc3c(c2)c(=O)c(C(N)=O)cn3CC)[C@H](C)[C@H]2OC(=O)O[C@@]21C : 5.14
CC[C@H]1OC(=O)[C@@](C)(F)C(=O)[C@H](C)[C@@H](O[C@@H]2O[C@H](C)C[C@H](N(C)C)[C@H]2O)[C@](C)(OC)C[C@@H](C)/C(=N\OCC#Cc2ccc3c(c2)c(=O)c(C(N)=O)cn3CC)[C@H](C)[C@H]2OC(=O)O[C@@]21C : 7.32

Please find the next compound below.
Input CC[C@H]1OC(=O)[C@@](C)(F)C(=O)[C@H](C)[C@@H](O[C@@H]2O[C@H](C)C[C@H](N(C)C)[C@H]2O)[C@](C)(OC/C=C/c2ccc3c(c2)c(=O)c(C(N)=O)cn3C2CC2)C[C@@H](C)/C(=N\OC)[C@H](C)[C@H]2OC(=O)O[C@@]21C , output reported IC50.
14.9

* * *

Provide the reported CL/F of each item.
Experiment: Systemic plasma clearance in Sprague-Dawley rat at 20 mg/kg, po after 0.25 to 24 hrs by LC-MS/MS analysis
Format: ADME, organism-based
One number for each entry, in mL/min/kg.

Here are 3 compounds. What values of CL/F were reported for them?
1. CC[C@H]1OC(=O)[C@@](C)(F)C(=O)[C@H](C)[C@@H](O[C@@H]2O[C@H](C)C[C@H](N(C)C)[C@H]2O)[C@](C)(OC/C=C/c2ccc3c(c2)c(=O)c(C(N)=O)cn3C2CC2)C[C@@H](C)/C(=N\OC)[C@H](C)[C@H]2OC(=O)O[C@@]21C
2. CC[C@H]1OC(=O)[C@H](C)C(=O)[C@H](C)[C@@H](O[C@@H]2O[C@H](C)C[C@H](N(C)C)[C@H]2O)[C@](C)(OC)C[C@@H](C)C(=O)[C@H](C)[C@H]2N(CCCCn3cnc(-c4cccnc4)c3)C(=O)O[C@]12C
3. CC[C@H]1OC(=O)[C@@](C)(F)C(=O)[C@H](C)[C@@H](O[C@@H]2O[C@H](C)C[C@H](N(C)C)[C@H]2O)[C@](C)(OC)C[C@@H](C)/C(=N\OCC#Cc2ccc3c(c2)c(=O)c(C(N)=O)cn3CC)[C@H](C)[C@H]2OC(=O)O[C@@]21C

[80.8, 363, 1190]

* * *

Test system: Streptococcus pyogenes
Test: Selectivity ratio of MBC to MIC for MLS-resistant Streptococcus pyogenes 12-206 expressing constitutive ermA gene
Type: functional
PARAMETER: Selectivity ratio

CC[C@H]1OC(=O)[C@@](C)(F)C(=O)[C@H](C)[C@@H](O[C@@H]2O[C@H](C)C[C@H](N(C)C)[C@H]2O)[C@](C)(OC)C[C@@H](C)/C(=N\OCC#Cc2ccc3c(c2)c(=O)c(C(=O)NC)cn3C2CC2)[C@H](C)[C@H]2OC(=O)O[C@@]21C : >8

Fill in Selectivity ratio for record CC[C@H]1OC(=O)[C@@](C)(F)C(=O)[C@H](C)[C@@H](O[C@@H]2O[C@H](C)C[C@H](N(C)C)[C@H]2O)[C@](C)(OC/C=C/c2ccc3c(c2)c(=O)c(C(=O)NC)cn3CC)C[C@@H](C)/C(=N\OC)[C@H](C)[C@H]2OC(=O)O[C@@]21C
>8

* * *

Test: Tmax in Sprague-Dawley rat at 20 mg/kg, po after 0.25 to 24 hrs by LC-MS/MS analysis
Assay type: ADME, organism-based
Conditions: in vivo
PARAMETER: Tmax (h)
Numbers only, in h.

Worked cases, Tmax given:
CC[C@H]1OC(=O)[C@@](C)(F)C(=O)[C@H](C)[C@@H](O[C@@H]2O[C@H](C)C[C@H](N(C)C)[C@H]2O)[C@](C)(OC)C[C@@H](C)/C(=N\OCC#Cc2ccc3c(c2)c(=O)c(C(N)=O)cn3CC)[C@H](C)[C@H]2OC(=O)O[C@@]21C : 7
CC[C@H]1OC(=O)[C@@](C)(F)C(=O)[C@H](C)[C@@H](O[C@@H]2O[C@H](C)C[C@H](N(C)C)[C@H]2O)[C@](C)(OC)C[C@@H](C)/C(=N\OC/C=C/c2ccc3c(c2)c(=O)c(C(N)=O)cn3CC)[C@H](C)[C@H]2OC(=O)O[C@@]21C : 7
CC[C@H]1OC(=O)[C@@](C)(F)C(=O)[C@H](C)[C@@H](O[C@@H]2O[C@H](C)C[C@H](N(C)C)[C@H]2O)[C@](C)(OC/C=C/c2ccc3c(c2)c(=O)c(C(N)=O)cn3C2CC2)C[C@@H](C)/C(=N\OC)[C@H](C)[C@H]2OC(=O)O[C@@]21C : 6.67

Turning now to a further record.
Please list Tmax recorded for the compound CC[C@H]1OC(=O)[C@H](C)C(=O)[C@H](C)[C@@H](O[C@@H]2O[C@H](C)C[C@H](N(C)C)[C@H]2O)[C@](C)(OC)C[C@@H](C)C(=O)[C@H](C)[C@H]2N(CCCCn3cnc(-c4cccnc4)c3)C(=O)O[C@]12C
2

* * *

Test system: Rattus norvegicus
Assay: Ratio of test compound half life to telithromycin half life in Sprague-Dawley rat at 20 mg/kg, po after 0.25 to 24 hrs by LC-MS/MS analysis
Assay type: ADME, organism-based
Details: in vivo
PARAMETER: Ratio

Field: example entries. Status: answers known.
CC[C@H]1OC(=O)[C@@](C)(F)C(=O)[C@H](C)[C@@H](O[C@@H]2O[C@H](C)C[C@H](N(C)C)[C@H]2O)[C@](C)(OC)C[C@@H](C)/C(=N\OC/C=C/c2ccc3c(c2)c(=O)c(C(N)=O)cn3CC)[C@H](C)[C@H]2OC(=O)O[C@@]21C : 2.5 to 3.6
CC[C@H]1OC(=O)[C@@](C)(F)C(=O)[C@H](C)[C@@H](O[C@@H]2O[C@H](C)C[C@H](N(C)C)[C@H]2O)[C@](C)(OC/C=C/c2ccc3c(c2)c(=O)c(C(N)=O)cn3C2CC2)C[C@@H](C)/C(=N\OC)[C@H](C)[C@H]2OC(=O)O[C@@]21C : 2.5 to 3.6

Then this molecule:
Give Ratio for CC[C@H]1OC(=O)[C@@](C)(F)C(=O)[C@H](C)[C@@H](O[C@@H]2O[C@H](C)C[C@H](N(C)C)[C@H]2O)[C@](C)(OC)C[C@@H](C)/C(=N\OCC#Cc2ccc3c(c2)c(=O)c(C(N)=O)cn3CC)[C@H](C)[C@H]2OC(=O)O[C@@]21C
2.5 to 3.6

* * *

Tested on: Staphylococcus aureus
Assay: Bactericidal activity against MLS/methicillin-resistant Staphylococcus aureus PU 32 expressing inducible ermA gene pretreated followed by subculture in absence of compound measured after 24 hrs
Format: functional
PARAMETER: MBC

CC[C@H]1OC(=O)[C@@](C)(F)C(=O)[C@H](C)[C@@H](O[C@@H]2O[C@H](C)C[C@H](N(C)C)[C@H]2O)[C@](C)(OC)C[C@@H](C)/C(=N\OCC#Cc2cncc(C(N)=O)c2)[C@H](C)[C@H]2OC(=O)O[C@@]21C : > 8 µg/mL

System Staphylococcus aureus. Read-out MBC. Item CC[C@H]1OC(=O)[C@@](C)(F)C(=O)[C@H](C)[C@@H](O[C@@H]2O[C@H](C)C[C@H](N(C)C)[C@H]2O)[C@](C)(OC/C=C/c2ccc3c(c2)c(=O)c(C(N)=O)cn3C2CC2)C[C@@H](C)/C(=N\OC)[C@H](C)[C@H]2OC(=O)O[C@@]21C . Report value.
> 2 µg/mL

* * *

For each record, write down the corresponding Selectivity ratio.
Test system: Staphylococcus aureus
Assay: Selectivity ratio of MBC to MIC for MLS/methicillin-resistant Staphylococcus aureus PU 32 expressing inducible ermA gene
Assay type: functional
Numbers only.

The following compounds have reported results that may help.
CC[C@H]1OC(=O)[C@@](C)(F)C(=O)[C@H](C)[C@@H](O[C@@H]2O[C@H](C)C[C@H](N(C)C)[C@H]2O)[C@](C)(OC)C[C@@H](C)/C(=N\OCC#Cc2ccc3c(c2)c(=O)c(C(N)=O)cn3C2CC2)[C@H](C)[C@H]2OC(=O)O[C@@]21C : 8
CC[C@H]1OC(=O)[C@@](C)(F)C(=O)[C@H](C)[C@@H](O[C@@H]2O[C@H](C)C[C@H](N(C)C)[C@H]2O)[C@](C)(OC)C[C@@H](C)/C(=N\OCC#Cc2ccc3c(c2)c(=O)c(C(=O)O)cn3C2CC2)[C@H](C)[C@H]2OC(=O)O[C@@]21C : 4
CC[C@H]1OC(=O)[C@@](C)(F)C(=O)[C@H](C)[C@@H](O[C@@H]2O[C@H](C)C[C@H](N(C)C)[C@H]2O)[C@](C)(OC/C=C/c2ccc3[nH]cc(C(=O)O)c(=O)c3c2)C[C@@H](C)/C(=N\OC)[C@H](C)[C@H]2OC(=O)O[C@@]21C : 4

--- query ---
Report measured Selectivity ratio; entry is CC[C@H]1OC(=O)[C@@](C)(F)C(=O)[C@H](C)[C@@H](O[C@@H]2O[C@H](C)C[C@H](N(C)C)[C@H]2O)[C@](C)(OC)C[C@@H](C)/C(=N\OCCCc2ccc3c(c2)c(=O)c(C(=O)O)cn3C2CC2)[C@H](C)[C@H]2OC(=O)O[C@@]21C
2
